// provenance: PubChem BioAssay (NCI)

Test system: SK-MEL-5 melanoma
Assay: NCI tumour cell line growth inhibition, 48 h
measurement_name: TGI

The examples below pair each entry with its known result.
| compound | value |
| --- | --- |
| O=C(NNC(c1ccccc1)C(F)(F)F)c1ccncc1 (stereo unspecified) | > 100 µM |
| C=C1C(=O)OC2/C=C(/C)C3CC(O)C(C)(CC(OC(=O)/C(C)=C/C)C12)O3 (stereo unspecified) | 16.2 µM |
| [N-]=[N+]=Nc1c(C=O)c(=O)n(-c2ccccc2)c2ccccc12 | 27.5 µM |
| CN(C)c1ncc(-c2ccc(C(F)(F)F)cc2)c(NC2CCCCCC2)n1 | 28.3 µM |
| Cc1c2c(n(CCc3ccccc3)c1C)N(C)N=C(C#N)S2(=O)=O | > 100 µM |
| CC(=O)C1C(=O)NC(=O)C1=O (stereo unspecified) | > 100 µM |

Entry COc1ccc(C(=O)C(c2ccc(OC)cc2)C2OC(=O)C(Cl)=C2Cl)cc1 (stereo unspecified) has what TGI?
> 100 µM

# iterate: "O=C(O)c1ccc(S(=O)(=O)Nc2ccc3oc4c(c3c2)C(=O)CCC4)cc1"
> 100 µM

# iterate: CN(CC#N)C1CCCC[C@H]1O (stereo partly specified)
> 100 µM

# iterate: "O=C(Cc1csc(-c2nc(CC(=O)NNc3ccccc3)cs2)n1)NNc1ccccc1"
> 100 µM

# iterate: "CCOC(=O)C(=O)Nc1ccc(Cl)cc1C"
> 100 µM
